# EXPERIMENTAL_SYSTEM: DNA topoisomerase 1 (Homo sapiens)
# ASSAY_SUMMARY: Inhibition of human topoisomerase 1 expressed in Escherichia coli assessed as YepG plasmid DNA cleavage
REC under 0.2 gets TRUE, anything at or over 0.2 gets FALSE.

The examples below pair each entry with its known result.
In [3]: df
Out[3]:
                         chemical_structure  label_value
0  COc1cc2c(=O)n(CCN(C)C)c3c4cc5c(cc4ncc3c2cc1OC)OCO5        FALSE
1  COc1cc2c(=O)n(CCO)c3c4cc5c(cc4nnc3c2cc1OC)OCO5        FALSE
2  COc1cc2c(=O)n(CCN(C)C)c3c4cc5c(cc4nnc3c2cc1OC)OCO5        FALSE
3  COc1cc2c(=O)n(CCN(C)Cc3ccccc3)c3c4cc5c(cc4nnc3c2cc1OC)OCO5        FALSE
4  COc1cc2c(=O)n(CCN(Cc3ccccc3)C(C)C)c3c4cc5c(cc4nnc3c2cc1OC)OCO5        FALSE

--- query ---
Challenge: Say whether its REC is strictly beneath 0.2. Entry: COc1cc2c(=O)n(CCN(C)CCN(C)C)c3c4cc5c(cc4nnc3c2cc1OC)OCO5
Response given: FALSE

* * *

# ASSAY_SUMMARY: Cytotoxicity against human multidrug resistant MDR1 overexpressing human KBV1 cells after 4 days by MTT assay
# Format: functional, cell-based
# TEST_CONDITIONS: KB-V1, 96 h
# strict inequality: IC50 < 20 nM yields class 1, everything else yields class 0

>>> print(df.to_string())
                         chemical_structure  label_value
0  COc1cc2c(=O)n(CCNC(C)C)c3c4cc5c(cc4nnc3c2cc1OC)OCO5      class 1
1  COc1cc2c(=O)n(CCN(C)C)c3c4cc5c(cc4nnc3c2cc1OC)OCO5      class 1
2  COc1cc2c(=O)n(CCN(C)CCN(C)C)c3c4cc5c(cc4nnc3c2cc1OC)OCO5      class 0

Challenge: For this compound, is IC50 lower than 20 nM? COc1cc2c(=O)n(CCN(C)C)c3c4cc5c(cc4ncc3c2cc1OC)OCO5
Response given: class 1

Challenge: // query: CNCCn1c(=O)c2cc(OC)c(OC)cc2c2nnc3cc4c(cc3c21)OCO4
Response given: class 0

* * *

For each of the compounds below, state its REC.
# EXPERIMENTAL_SYSTEM: DNA topoisomerase 1 (Homo sapiens)
# Sequence (whole entry): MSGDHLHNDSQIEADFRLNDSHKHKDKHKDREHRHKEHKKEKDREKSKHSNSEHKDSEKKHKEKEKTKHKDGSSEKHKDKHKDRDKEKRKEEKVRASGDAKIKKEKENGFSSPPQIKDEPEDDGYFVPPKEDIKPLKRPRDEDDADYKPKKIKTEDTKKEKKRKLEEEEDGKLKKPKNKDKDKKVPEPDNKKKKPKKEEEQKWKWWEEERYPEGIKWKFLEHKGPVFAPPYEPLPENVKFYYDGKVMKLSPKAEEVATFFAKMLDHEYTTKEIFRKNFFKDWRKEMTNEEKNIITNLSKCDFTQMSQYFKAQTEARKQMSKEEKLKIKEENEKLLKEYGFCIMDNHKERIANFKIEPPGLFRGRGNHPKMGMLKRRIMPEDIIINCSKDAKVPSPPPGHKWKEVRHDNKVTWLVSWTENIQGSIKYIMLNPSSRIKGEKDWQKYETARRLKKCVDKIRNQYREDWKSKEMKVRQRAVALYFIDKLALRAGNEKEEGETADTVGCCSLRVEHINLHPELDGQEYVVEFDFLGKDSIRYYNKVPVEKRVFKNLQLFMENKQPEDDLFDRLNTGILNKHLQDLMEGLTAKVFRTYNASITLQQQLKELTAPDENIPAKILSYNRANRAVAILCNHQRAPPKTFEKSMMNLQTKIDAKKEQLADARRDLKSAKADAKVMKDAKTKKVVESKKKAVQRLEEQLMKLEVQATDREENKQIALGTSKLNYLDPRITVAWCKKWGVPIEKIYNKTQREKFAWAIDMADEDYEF
# ASSAY_SUMMARY: Inhibition of human topoisomerase 1 expressed in Escherichia coli assessed as YepG plasmid DNA cleavage
One number for each entry.

Some solved cases for reference:
In [3]: df
Out[3]:
                         chemical_structure  measurement_type  value_observed
0  COc1cc2c(=O)n(CCNC(CO)(CO)CO)c3c4cc5c(cc4nnc3c2cc1OC)OCO5               REC             0.2
1  COc1cc2c(=O)n(CCn3ccnc3)c3c4cc5c(cc4nnc3c2cc1OC)OCO5               REC             0.1
2  CC[C@@]1(O)C(=O)OCc2c1cc1n(c2=O)Cc2cc3ccccc3nc2-1               REC             0.2
3  CNCCn1c(=O)c2cc(OC)c(OC)cc2c2nnc3cc4c(cc3c21)OCO4               REC            0.03

// next item, REC requested
Challenge: Find the recorded REC belonging to COc1cc2c(=O)n(CCNC(C)C)c3c4cc5c(cc4nnc3c2cc1OC)OCO5 and report it.
Response given: 0.08

All figures here come from ChEMBL document CHEMBL1156616.
